assay: Biodistribution in AR4-2J tumor-bearing mice; format: in vivo; conditions: female, mouse, muscle, iv, 10 pmol total peptide, total radioactivity; AR4-2J tumor SCID mice, 1 h pi; mean ± SD; read-out: Muscle uptake
measured_metric: tissue uptake at 1 h (%ID/g)
Quick note: give the figure in %ID/g, leave out the unit.

Qu. Fill in the blank: the reported tissue uptake at 1 h of C[C@H](NC(=O)CN1CCN(CC(=O)O)CCN(CC(=O)O)CCN(CC(=O)O)CC1)C(=O)NCC(=O)N[C@H]1CSSC[C@@H](C(=O)O)NC(=O)[C@H](CO)NC(=O)[C@H]([C@@H](C)O)NC(=O)[C@H](Cc2ccccc2)NC(=O)[C@H]([C@@H](C)O)NC(=O)[C@H](CCCCN)NC(=O)[C@@H](Cc2c[nH]c3ccccc23)NC(=O)[C@H](Cc2ccccc2)NC(=O)[C@H](Cc2ccccc2)NC(=O)[C@H](CC(N)=O)NC(=O)[C@H](CCCCN)NC1=O [[^111In]AT2S, metal not drawn] is ____.
Ans. 0.22
